Numbers sourced from paper PMC9623233.

Test: CT900 plasma pharmacokinetics, noncompartmental analysis
Type: in vivo, human
Settings: human, plasma, iv, 12 mg/m2, C max, 12 mg/m^2 i.v., Cycle 1 Day 1; Range, N 5
resultType: Cmax

compoundSmiles	value
C#CCN(c1ccc(C(=O)N[C@@H](CCC(=O)N[C@H](CCC(=O)O)C(=O)O)C(=O)O)cc1)[C@H]1CCc2cc3nc(CO)[nH]c(=O)c3cc21	4460 to 6010 ng/mL

====

Assay: CT900 plasma pharmacokinetics, noncompartmental analysis
Format: in vivo, human
Conditions: human, plasma, iv, 12 mg/m2, T max, 12 mg/m^2 i.v., Cycle 1 Day 1; Range, N 5

compoundSmiles	Tmax
C#CCN(c1ccc(C(=O)N[C@@H](CCC(=O)N[C@H](CCC(=O)O)C(=O)O)C(=O)O)cc1)[C@H]1CCc2cc3nc(CO)[nH]c(=O)c3cc21	1 h

====

Experiment: CT900 plasma pharmacokinetics, noncompartmental analysis
Format: in vivo, human
Conditions: human, plasma, iv, 1 mg/m2, Vss, 1 mg/m^2 i.v., Cycle 1 Day 1; Median, N 3
resultType: Vd (L)

compoundSmiles	resultType	units	value
C#CCN(c1ccc(C(=O)N[C@@H](CCC(=O)N[C@H](CCC(=O)O)C(=O)O)C(=O)O)cc1)[C@H]1CCc2cc3nc(CO)[nH]c(=O)c3cc21	Vd	L	6.75

====

Experiment: CT900 plasma pharmacokinetics, noncompartmental analysis
Assay type: in vivo, human
Conditions: human, plasma, iv, 12 mg/m2, AUClast, 12 mg/m^2 i.v., Cycle 1 Day 1; Geometric Mean, N 5
resultType: AUC(0-t) (ng·h/mL)

compoundSmiles	resultType	value
C#CCN(c1ccc(C(=O)N[C@@H](CCC(=O)N[C@H](CCC(=O)O)C(=O)O)C(=O)O)cc1)[C@H]1CCc2cc3nc(CO)[nH]c(=O)c3cc21	AUC(0-t)	85900

====

Assay: CT900 plasma pharmacokinetics, noncompartmental analysis
Assay type: in vivo, human
Conditions: human, plasma, iv, 1 mg/m2, AUClast, 1 mg/m^2 i.v., Cycle 1 Day 1; Range, N 3
resultType: AUC(0-t)

compoundSmiles	value
C#CCN(c1ccc(C(=O)N[C@@H](CCC(=O)N[C@H](CCC(=O)O)C(=O)O)C(=O)O)cc1)[C@H]1CCc2cc3nc(CO)[nH]c(=O)c3cc21	1020 to 2330 ng·h/mL

====

Experiment: CT900 plasma pharmacokinetics, noncompartmental analysis
Format: in vivo, human
Conditions: human, plasma, iv, 12 mg/m2, AUClast, 12 mg/m^2 i.v., Cycle 1 Day 1; Mean, N 5

compound	AUC(0-t) [ng·h/mL]
C#CCN(c1ccc(C(=O)N[C@@H](CCC(=O)N[C@H](CCC(=O)O)C(=O)O)C(=O)O)cc1)[C@H]1CCc2cc3nc(CO)[nH]c(=O)c3cc21 [CT900]	87600

====

Assay: CT900 plasma pharmacokinetics, noncompartmental analysis
Type: in vivo, human
Conditions: human, plasma, iv, 6 mg/m2, Cl, 6 mg/m^2 i.v., Cycle 1 Day 1; Mean, N 1

compoundSmiles	units	clearance
C#CCN(c1ccc(C(=O)N[C@@H](CCC(=O)N[C@H](CCC(=O)O)C(=O)O)C(=O)O)cc1)[C@H]1CCc2cc3nc(CO)[nH]c(=O)c3cc21	mL/min	7.67
